Origin of values: patent US20240391954A1

Form field: cAMP EC50 (one value per entry).
- Study System: human MC4R receptor (human, UniProt P32245 1-332)
- Sequence (P32245 whole entry): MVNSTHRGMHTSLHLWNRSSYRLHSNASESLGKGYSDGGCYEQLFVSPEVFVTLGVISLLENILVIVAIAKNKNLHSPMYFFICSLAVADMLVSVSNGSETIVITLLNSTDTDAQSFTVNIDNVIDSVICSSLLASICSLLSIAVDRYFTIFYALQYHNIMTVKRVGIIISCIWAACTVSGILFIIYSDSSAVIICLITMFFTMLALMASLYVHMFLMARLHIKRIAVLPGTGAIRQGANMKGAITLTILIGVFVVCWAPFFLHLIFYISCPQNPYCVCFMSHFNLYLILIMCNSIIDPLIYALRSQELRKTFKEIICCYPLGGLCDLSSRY
- Test Summary: cell-based or functional assay
Positions of bridges follow the written chain, without caps; N, C: chain ends. Non-standard residues stand in square brackets, D forms with d. Phe(4-Br) = N[C@@H](Cc1ccc(Br)cc1)C(=O)O; dPhe(4-Br) = N[C@H](Cc1ccc(Br)cc1)C(=O)O; d2Nal = N[C@H](Cc1ccc2ccccc2c1)C(=O)O; d(αMeF) = C[C@@](N)(Cc1ccccc1)C(=O)O; d(hPhe) = N[C@H](CCc1ccccc1)C(=O)O; NMeR = CN[C@@H](CCCNC(=N)N)C(=O)O; dTic = O=C(O)[C@H]1Cc2ccccc2CN1; Nle = CCCC[C@H](N)C(=O)O
Assay Metric: cAMP EC50 (nM)

[[record]]
binder = "Ac-RC[dA]RF[NMeR][dW]C-NH2 (disulfide 2-8; not fully specified (residue 5)) [CTX-1251]"
experimental_result = 25

[[record]]
binder = "Ac-RC[dA]R[dPhe(4-Br)]RFC-NH2 (disulfide 2-8; SMILES CC(=O)N[C@@H](CCCNC(=N)N)C(=O)N[C@H]1CSSC[C@@H](C(N)=O)NC(=O)[C@H](Cc2ccccc2)NC(=O)[C@H](CCCNC(=N)N)NC(=O)[C@@H](Cc2ccc(Br)cc2)NC(=O)[C@H](CCCNC(=N)N)NC(=O)[C@@H](C)NC1=O) [CTX-1258]"
experimental_result = 2.4

[[record]]
binder = "Ac-RC[dA]R[dPhe(4-Br)]R[d2Nal]C-NH2 (disulfide 2-8; SMILES CC(=O)N[C@@H](CCCNC(=N)N)C(=O)N[C@H]1CSSC[C@@H](C(N)=O)NC(=O)[C@@H](Cc2ccc3ccccc3c2)NC(=O)[C@H](CCCNC(=N)N)NC(=O)[C@@H](Cc2ccc(Br)cc2)NC(=O)[C@H](CCCNC(=N)N)NC(=O)[C@@H](C)NC1=O) [CTX-1254]"
experimental_result = 4.2

[[record]]
binder = "Ac-RC[dA]R[dPhe(4-Br)]R[dW]CR[dF]-NH2 (disulfide 2-8; SMILES CC(=O)N[C@@H](CCCNC(=N)N)C(=O)N[C@H]1CSSC[C@@H](C(=O)N[C@@H](CCCNC(=N)N)C(=O)N[C@H](Cc2ccccc2)C(N)=O)NC(=O)[C@@H](Cc2c[nH]c3ccccc23)NC(=O)[C@H](CCCNC(=N)N)NC(=O)[C@@H](Cc2ccc(Br)cc2)NC(=O)[C@H](CCCNC(=N)N)NC(=O)[C@@H](C)NC1=O) [CTX-1222]"
experimental_result = 30

[[record]]
binder = "Ac-RC[dA]P[d2Nal]RWC-NH2 (disulfide 2-8; SMILES CC(=O)N[C@@H](CCCNC(=N)N)C(=O)N[C@H]1CSSC[C@@H](C(N)=O)NC(=O)[C@H](Cc2c[nH]c3ccccc23)NC(=O)[C@H](CCCNC(=N)N)NC(=O)[C@@H](Cc2ccc3ccccc3c2)NC(=O)[C@@H]2CCCN2C(=O)[C@@H](C)NC1=O) [CTX-2203]"
experimental_result = 12

[[record]]
binder = "Ac-RC[dA]R[d(αMeF)]R[dW]C-NH2 (disulfide 2-8; SMILES CC(=O)N[C@@H](CCCNC(=N)N)C(=O)N[C@H]1CSSC[C@@H](C(N)=O)NC(=O)[C@@H](Cc2c[nH]c3ccccc23)NC(=O)[C@H](CCCNC(=N)N)NC(=O)[C@@](C)(Cc2ccccc2)NC(=O)[C@H](CCCNC(=N)N)NC(=O)[C@@H](C)NC1=O) [CTX-1279]"
experimental_result = 72

[[record]]
binder = "Ac-RC[dA]R[dPhe(4-Br)]R[dTic]C-NH2 (disulfide 2-8) [CTX-1256]"
experimental_result = 7240

[[record]]
binder = "Ac-RC[dA]R[d(hPhe)]R[dW]C-NH2 (disulfide 2-8) [CTX-1277]"
experimental_result = 429

[[record]]
binder = "Ac-RC[dA]R[Phe(4-Br)]R[dW]C-NH2 (disulfide 2-8) [CTX-1215]"
experimental_result = 592

[[record]]
binder = "Ac-CGR[dPhe(4-Br)]RFC-NH2 (disulfide 1-7) [CTX-1640]"
experimental_result = 3.4

[[record]]
binder = "Ac-RC[dA]R[dPhe(4-Br)]R[dA]C-NH2 (disulfide 2-8; SMILES CC(=O)N[C@@H](CCCNC(=N)N)C(=O)N[C@H]1CSSC[C@@H](C(N)=O)NC(=O)[C@@H](C)NC(=O)[C@H](CCCNC(=N)N)NC(=O)[C@@H](Cc2ccc(Br)cc2)NC(=O)[C@H](CCCNC(=N)N)NC(=O)[C@@H](C)NC1=O) [CTX-1260]"
experimental_result = 4930

[[record]]
binder = "Ac-RC[dA][NMeR][dPhe(4-Br)]R[dW]C-NH2 (disulfide 2-8; SMILES CC(=O)N[C@@H](CCCNC(=N)N)C(=O)N[C@H]1CSSC[C@@H](C(N)=O)NC(=O)[C@@H](Cc2c[nH]c3ccccc23)NC(=O)[C@H](CCCNC(=N)N)NC(=O)[C@@H](Cc2ccc(Br)cc2)NC(=O)[C@H](CCCNC(=N)N)N(C)C(=O)[C@@H](C)NC1=O) [CTX-1248]"
experimental_result = 2

[[record]]
binder = "Ac-R[Nle]CH[dPhe(4-Br)]RWC-NH2 (disulfide 3-8; SMILES CCCC[C@H](NC(=O)[C@H](CCCNC(=N)N)NC(C)=O)C(=O)N[C@H]1CSSC[C@@H](C(N)=O)NC(=O)[C@H](Cc2c[nH]c3ccccc23)NC(=O)[C@H](CCCNC(=N)N)NC(=O)[C@@H](Cc2ccc(Br)cc2)NC(=O)[C@H](Cc2c[nH]cn2)NC1=O) [CTX-1229]"
experimental_result = 18

